- Study target: BdorOR88a/BdorOrco (Bactrocera dorsalis)
- Construct: full-length OR88a (1,245 nt, 414 aa) co-expressed with BdorOrco from pCS2+ cRNAs in Xenopus laevis oocytes; with Odorant receptor coreceptor
- Sequence (A0A0G2UKI5 1-414): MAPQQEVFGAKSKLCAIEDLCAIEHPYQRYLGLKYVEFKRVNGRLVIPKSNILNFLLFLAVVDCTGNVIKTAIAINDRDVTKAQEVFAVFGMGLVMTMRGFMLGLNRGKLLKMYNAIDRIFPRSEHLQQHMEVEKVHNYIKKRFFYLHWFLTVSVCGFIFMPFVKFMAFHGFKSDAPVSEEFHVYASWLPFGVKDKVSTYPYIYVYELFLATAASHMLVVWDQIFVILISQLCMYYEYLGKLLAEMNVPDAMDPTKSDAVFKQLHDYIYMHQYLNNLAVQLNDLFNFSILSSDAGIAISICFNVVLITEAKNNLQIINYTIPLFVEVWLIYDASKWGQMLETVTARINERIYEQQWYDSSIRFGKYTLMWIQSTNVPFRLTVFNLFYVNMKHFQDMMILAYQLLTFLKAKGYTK
- Sequence (B2Z9Z0 1-473 partner): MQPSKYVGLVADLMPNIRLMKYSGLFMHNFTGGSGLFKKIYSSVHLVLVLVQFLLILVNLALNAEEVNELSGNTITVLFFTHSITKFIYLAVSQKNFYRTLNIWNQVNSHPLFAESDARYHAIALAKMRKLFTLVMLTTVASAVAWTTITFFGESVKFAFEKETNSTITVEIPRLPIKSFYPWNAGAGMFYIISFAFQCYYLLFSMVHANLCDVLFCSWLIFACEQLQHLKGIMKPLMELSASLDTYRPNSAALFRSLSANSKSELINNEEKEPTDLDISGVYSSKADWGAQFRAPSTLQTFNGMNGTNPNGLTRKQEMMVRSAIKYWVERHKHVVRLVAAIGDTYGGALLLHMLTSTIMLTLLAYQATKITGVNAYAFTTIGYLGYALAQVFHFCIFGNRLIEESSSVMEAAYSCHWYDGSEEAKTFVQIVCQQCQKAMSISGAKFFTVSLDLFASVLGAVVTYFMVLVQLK
- Assay text: two-electrode voltage clamp, Xenopus oocytes
Property: EC50 (µM)
Write it as a number; the unit µM goes unstated.

Task: # get_value(readout='EC50', item= C=CCc1ccc(OC)c(OC)c1 [ME, methyl eugenol] )
Result: 28.3
